biological target: UniProtKB Q14123; assay: Selective inhibitory activity assay, PDE1C; format: biochemical; conditions: 10 μM; read-out: Inhibition rate (%) of PDE1C
Sequence (Q14123 whole entry, species assumed): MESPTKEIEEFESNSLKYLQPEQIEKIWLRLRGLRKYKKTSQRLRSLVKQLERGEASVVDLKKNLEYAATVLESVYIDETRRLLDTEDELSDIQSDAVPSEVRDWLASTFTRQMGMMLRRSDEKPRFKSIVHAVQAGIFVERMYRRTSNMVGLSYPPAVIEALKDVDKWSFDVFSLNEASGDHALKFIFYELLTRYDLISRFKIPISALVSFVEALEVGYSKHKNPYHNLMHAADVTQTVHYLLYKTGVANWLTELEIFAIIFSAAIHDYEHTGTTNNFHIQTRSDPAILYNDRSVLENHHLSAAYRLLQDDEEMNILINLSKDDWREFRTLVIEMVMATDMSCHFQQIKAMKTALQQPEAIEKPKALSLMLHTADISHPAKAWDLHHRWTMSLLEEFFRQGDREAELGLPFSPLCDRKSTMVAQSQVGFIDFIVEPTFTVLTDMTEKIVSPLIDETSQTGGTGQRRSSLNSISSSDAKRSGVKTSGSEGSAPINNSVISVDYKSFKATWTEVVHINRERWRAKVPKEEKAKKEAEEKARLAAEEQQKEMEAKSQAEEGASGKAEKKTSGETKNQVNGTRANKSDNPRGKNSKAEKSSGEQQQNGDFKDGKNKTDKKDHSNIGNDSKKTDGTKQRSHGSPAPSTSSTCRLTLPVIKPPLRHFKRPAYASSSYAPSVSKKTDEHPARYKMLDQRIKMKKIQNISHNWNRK
Field: inhibition at 10 µM. Provide a value for each of the molecules that follow.
Write the numeric value and append its unit.

Ask | Can you look up the measured inhibition at 10 µM of CCCCCc1ccc(NC(=O)CCl)c2c1C(=O)N([C@H](CS(C)(=O)=O)c1ccc(OC)c(OCC)c1)C2=O for me?
Reply | 33.8%

Ask | Next record, please: CCCCc1ccc(NC(=O)CCCCl)c2c1C(=O)N([C@H](CS(C)(=O)=O)c1ccc(OC)c(OCC)c1)C2=O
Reply | 67.5%

Ask | Next record, please: CCCCCc1ccc(NC(C)=O)c2c1C(=O)N([C@H](CS(C)(=O)=O)c1ccc(OC)c(OCC)c1)C2=O
Reply | 30.6%

----------
Recorded pIC50 values (PDE4D3 (Homo sapiens, UniProt Q08499)) are given below.
pIC50: −log10 of the molar value.

Ask | Can you look up the measured pIC50 of CCCCC(=O)c1ccc(NC(C)=O)c2c1C(=O)N([C@H](CS(C)(=O)=O)c1ccc(OC)c(OCC)c1)C2=O [Example 56] for me?
Reply | 7.30 to 8.00

Ask | Next record, please: CCCCCc1ccc(NC(=O)C2CC2)c2c1C(=O)N([C@H](CS(C)(=O)=O)c1ccc(OC)c(OCC)c1)C2=O [Example 6]
Reply | 6.70 to 7.30

Ask | Next record, please: CCCCc1ccc(NC(=O)CCCCl)c2c1C(=O)N([C@H](CS(C)(=O)=O)c1ccc(OC)c(OCC)c1)C2=O [Example 27]
Reply | 7.30 to 8.00

Ask | Next record, please: CCCCCCCCCCCCCc1ccc(NC(=O)C2CC2)c2c1C(=O)N([C@H](CS(C)(=O)=O)c1ccc(OC)c(OCC)c1)C2=O [Example 15]
Reply | < 6.70

Ask | Next record, please: CCCCCc1ccc(NC(=O)CC(C)C)c2c1C(=O)N([C@H](CS(C)(=O)=O)c1ccc(OC)c(OCC)c1)C2=O [Example 11]
Reply | < 6.70

Ask | Next record, please: [2H]C([2H])(CCCC)c1ccc(NC(C)=O)c2c1C(=O)N([C@H](CS(C)(=O)=O)c1ccc(OC)c(OCC)c1)C2=O [Example 32]
Reply | > 8.30

Ask | Next record, please: CCCCCc1ccc(NC(=O)CF)c2c1C(=O)N([C@H](CS(C)(=O)=O)c1ccc(OC)c(OCC)c1)C2=O [Example 28]
Reply | 8.00 to 8.30

Ask | Next record, please: CCCCCCCCCC(=O)Nc1cccc2c1C(=O)N([C@H](CS(C)(=O)=O)c1ccc(OC)c(OCC)c1)C2=O [Example 8]
Reply | 6.70 to 7.30

Ask | Next record, please: CCCCCCc1ccc(NC(=O)CCCCl)c2c1C(=O)N([C@H](CS(C)(=O)=O)c1ccc(OC)c(OCC)c1)C2=O [Example 20]
Reply | 6.70 to 7.30

Ask | Next record, please: CCCCC(O)c1ccc(NC(C)=O)c2c1C(=O)N([C@H](CS(C)(=O)=O)c1ccc(OC)c(OCC)c1)C2=O (mixture of isomers) [Example 55]
Reply | > 8.30

Ask | Next record, please: CCCCCc1ccc(NC(=O)CCCl)c2c1C(=O)N([C@H](CS(C)(=O)=O)c1ccc(OC)c(OCC)c1)C2=O [Example 24]
Reply | 7.30 to 8.00

Ask | Next record, please: CCCCCc1ccc(NC(=O)CCCCl)c2c1C(=O)N([C@H](CS(C)(=O)=O)c1ccc(OC)c(OCC)c1)C2=O [Example 5]
Reply | 7.30 to 8.00

Ask | Next record, please: CCCCc1ccc(NC(=O)CCl)c2c1C(=O)N([C@H](CS(C)(=O)=O)c1ccc(OC)c(OCC)c1)C2=O [Example 26]
Reply | 7.30 to 8.00

Ask | Next record, please: CCCCCCCCc1ccc(NC(=O)CCCCl)c2c1C(=O)N([C@H](CS(C)(=O)=O)c1ccc(OC)c(OCC)c1)C2=O [Example 22]
Reply | < 6.70

Ask | Next record, please: CCCCCC(=O)Nc1ccc(CCCCC)c2c1C(=O)N([C@H](CS(C)(=O)=O)c1ccc(OC)c(OCC)c1)C2=O [Example 12]
Reply | < 6.70

Ask | Next record, please: [2H]c1c([2H])c(NC(C)=O)c2c(c1CCCCC)C(=O)N([C@H](CS(C)(=O)=O)c1ccc(OC)c(OCC)c1)C2=O [Example 33]
Reply | > 8.30

Ask | Next record, please: CCCCCc1ccc(NC(C)=O)c2c1C(=O)N([C@H](CS(C)(=O)=O)c1ccc(OC)c(OCC)c1)C2=O [Example 9]
Reply | > 8.30

Ask | Next record, please: CCCCCc1ccc(NC(=O)CC)c2c1C(=O)N([C@H](CS(C)(=O)=O)c1ccc(OC)c(OCC)c1)C2=O [Example 13]
Reply | 7.30 to 8.00

Ask | Next record, please: CCCCCCCCCc1ccc(NC(=O)C2CC2)c2c1C(=O)N([C@H](CS(C)(=O)=O)c1ccc(OC)c(OCC)c1)C2=O [Example 17]
Reply | < 6.70

Ask | Next record, please: CCCCCCc1ccc2c(c1NC(=O)CC)C(=O)N([C@H](CS(C)(=O)=O)c1ccc(OC)c(OCC)c1)C2=O [Example 23]
Reply | 6.70 to 7.30

Ask | Next record, please: CCCC#Cc1ccc(NC(C)=O)c2c1C(=O)N([C@H](CS(C)(=O)=O)c1ccc(OC)c(OCC)c1)C2=O [Example 7]
Reply | 7.30 to 8.00

Ask | Next record, please: CCCCCc1ccc(NC(=O)COC)c2c1C(=O)N([C@H](CS(C)(=O)=O)c1ccc(OC)c(OCC)c1)C2=O [Example 31]
Reply | 6.70 to 7.30

Ask | Next record, please: CCCCCCCc1ccc(NC(=O)CCCCl)c2c1C(=O)N([C@H](CS(C)(=O)=O)c1ccc(OC)c(OCC)c1)C2=O [Example 21]
Reply | < 6.70

Ask | Next record, please: CCCCCCCCCCCCCc1ccc(NC(=O)CC)c2c1C(=O)N([C@H](CS(C)(=O)=O)c1ccc(OC)c(OCC)c1)C2=O [Example 19]
Reply | < 6.70

Ask | Next record, please: CCCCCCCCCCCCCc1ccc(NC(C)=O)c2c1C(=O)N([C@H](CS(C)(=O)=O)c1ccc(OC)c(OCC)c1)C2=O [Example 14]
Reply | < 6.70

Ask | Next record, please: CCCCCCCCc1cc(NC(=O)C2CC2)c2c(c1)C(=O)N([C@H](CS(C)(=O)=O)c1ccc(OC)c(OCC)c1)C2=O [Example 3]
Reply | < 6.70

Ask | Next record, please: CCCCCCCCCc1ccc(NC(=O)CC)c2c1C(=O)N([C@H](CS(C)(=O)=O)c1ccc(OC)c(OCC)c1)C2=O [Example 18]
Reply | 6.70 to 7.30

Values compiled from patent US20240254082A1.
